Below, each entry is listed with its recorded pEC50.
- assayed.system: G-protein coupled receptor 35 (Homo sapiens, UniProt Q9HC97)
- Sequence (Q9HC97 whole entry): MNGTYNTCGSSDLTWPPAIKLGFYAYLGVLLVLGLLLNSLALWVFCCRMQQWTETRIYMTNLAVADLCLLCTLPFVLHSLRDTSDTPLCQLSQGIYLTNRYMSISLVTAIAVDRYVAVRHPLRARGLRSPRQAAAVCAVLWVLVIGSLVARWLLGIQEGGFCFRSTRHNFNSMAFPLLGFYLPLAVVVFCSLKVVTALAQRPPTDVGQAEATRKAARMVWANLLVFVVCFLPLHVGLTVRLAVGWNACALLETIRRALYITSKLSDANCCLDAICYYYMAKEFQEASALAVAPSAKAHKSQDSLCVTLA
- measurement.description: Agonist activity at human GPR35 expressed in CHO cells assessed as induction of beta-arrestin recruitment after 90 mins by beta-galactosidase reporter gene assay
- Type: cell-based
Give only the number. pEC50 is defined as minus log10 of concentration in molar units.

Examples with answers:
[
  {
    "molecule": "O=C(Cc1ccccc1)Nc1cccc2c(=O)cc(C(=O)O)oc12",
    "measurement.label": "pEC50",
    "observed": 5.05
  },
  {
    "molecule": "COc1ccc(C(=O)Nc2cc(Br)cc3c(=O)cc(C(=O)O)oc23)cc1OC",
    "measurement.label": "pEC50",
    "observed": 6.37
  },
  {
    "molecule": "COc1ccc(C(=O)Nc2cc(F)cc3c(=O)cc(C(=O)O)oc23)cc1",
    "measurement.label": "pEC50",
    "observed": 6.95
  },
  {
    "molecule": "COc1ccccc1C(=O)Nc1cc(Br)cc2c(=O)cc(C(=O)O)oc12",
    "measurement.label": "pEC50",
    "observed": 5.78
  }
]

GET /values?readout=pEC50&item= `CC(=O)Nc1cccc2c(=O)cc(C(=O)O)oc12` 4.62

Next molecule: `O=C(Nc1cc(Br)cc2c(=O)cc(C(=O)O)oc12)c1ccccc1` 6.52

Can you handle `Cc1cccc(C(=O)Nc2cc(Br)cc3c(=O)cc(C(=O)O)oc23)c1` next? 6.07

And what about the molecule `O=C(Nc1cccc2c(=O)cc(C(=O)O)oc12)c1cccc([N+](=O)[O-])c1` ? 5.16

###

- assayed.system: G-protein coupled receptor 35 (Homo sapiens)
- measurement.description: Agonist activity at human GPR35 expressed in CHO cells assessed as induction of beta-arrestin recruitment at 10 uM after 90 mins by beta-galactosidase reporter gene assay relative to zaprinast
- Type: cell-based
# maps each entry to its Emax
Response body: numeric value in %, unit text excluded.

A selection of reference data follows.
[
  {
    "compound": "O=C(Nc1cccc2c(=O)cc(C(=O)O)oc12)c1ccc2ccccc2c1",
    "Emax (%)": 125
  },
  {
    "compound": "O=C(Nc1cc(F)cc2c(=O)cc(C(=O)O)oc12)c1ccc(Cl)c(Cl)c1",
    "Emax (%)": 131
  },
  {
    "compound": "CC(=O)Nc1cccc2c(=O)cc(C(=O)O)oc12",
    "Emax (%)": 91
  },
  {
    "compound": "CCC(=O)Nc1cccc2c(=O)cc(C(=O)O)oc12",
    "Emax (%)": 119
  },
  {
    "compound": "O=C(Nc1cccc2c(=O)cc(C(=O)O)oc12)c1cccc([N+](=O)[O-])c1",
    "Emax (%)": 112
  }
]

Look at this compound and give its reported Emax. `Cc1ccc(C(=O)Nc2cccc3c(=O)cc(C(=O)O)oc23)cc1` 104

Ok, now O=C(O)c1cc(=O)c2c(OCC(O)COc3cccc4oc(C(=O)O)cc(=O)c34)cccc2o1 [CROMOLYN SODIUM] 119

And for `Cc1cccc(C(=O)Nc2cccc3c(=O)cc(C(=O)O)oc23)c1` ? 70

Check `COc1ccc(C(=O)Nc2cc(Cl)cc3c(=O)cc(C(=O)O)oc23)cc1` too. 110

Then `O=C(Cc1ccccc1)Nc1cccc2c(=O)cc(C(=O)O)oc12` ? 107
